Recorded pKd for the following binders
molecular target: Inadl_8, Q8NI35; test: holdup assay; design: key: below the threshold = too weak to quantify, mostly under pKd 3.1 to 4; details: plain residues with an end cap or a label only (N-terminal biotin on a linker: ado-ado)
Sequence (Q8NI35 1425-1530): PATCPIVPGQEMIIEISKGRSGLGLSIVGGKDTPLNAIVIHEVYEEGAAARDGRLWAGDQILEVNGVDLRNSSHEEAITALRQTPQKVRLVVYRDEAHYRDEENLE
Answer as a number with no unit attached.

For orientation, consider the following solved cases.
> print(dat)
                         binder  measurement.kind  readout.number
1    RQKEVRESKC [SCN8A, Q9UQD0]               pKd            3.95
2  SFISKKEWYV [NECTIN1, Q15223]               pKd            3.66

Request: Reported pKd, binder PPGKHLVTEV [KCNA7, Q96RP8] : ____
Result: 3.98

Request: // same read-out, input: PTPDLPQTRV [KLHDC7A, Q5VTJ3]
Result: 4.36

Request: // same read-out, input: ILRKSTTTTV [PRR16, Q569H4]
Result: 3.62

Request: // same read-out, input: DDASLPVSDV [PLEKHA1, Q9HB21]
Result: 4.94

Request: // same read-out, input: AQRARSPSDV [GPR12, P47775]
Result: 4.6
